Listed next: entries and their corresponding pKi.
- STUDY_SYSTEM: inducible human NOS (Homo sapiens)
- Construct: Purification of NOS cytokine-induced human colorectal adenocarcinoma DLD-1 cells; 2',5' ADP Sepharose purified
- PROTOCOL_NOTES: Inhibition of inducible human NOS (citrulline formation), enzyme from cytokine-induced DLD-1 cells
- EXPERIMENTAL_SETUP: NOS from cytokine-induced DLD-1 cells; 1 μM L-[14C] arginine; pH 7.4; 10 μM FAD, no calmodulin/CaCl2
- Experimental: NOS was assayed for the formation of citrulline following the procedure of Schmidt et al (PNAS 88 365-369, 1991) with these modifications: 20 mM Hepes, pH 7.4, 10 μg/ml calmodulin, 2.5 mM CaCl2 2.5 mM DTT, 125 μM NADPH 10 μM H4 Biopterin, 0.5 mg/ml BSA, and 1 μM L-[^14 C] arginine (New England Nuclear). Linearity of NOS-catalyzed rate was confirmed prior to kinetic studies that used single time point determination of rate. […]
pKi: −log10 of the molar value.

Sample answers from the record:
> print(dat)
                                   compound                        study.system  result
1  N=C(Nc1ccc(CC(N)C(=O)O)s1)NC1CC1 (racemic) [Compound 5]  inducible human NOS (Homo sapiens)  < 4.30
2  NC(N)=Nc1ccccc1CC(N)C(=O)O (racemic) [Compound 3, 2-Guanidino-DL-phenylalanine]  inducible human NOS (Homo sapiens)  ≥ 5.00
3  N=C(N)Nc1cccc(CC(N)C(=O)O)c1 (racemic) [Compound 12, 3-guanidino-DL-phenylalanine]  inducible human NOS (Homo sapiens)  < 4.30

Per the records, this compound ( CCSC(=N)Nc1ccccc1CC(N)C(=O)O (racemic) [Compound 9] ) has pKi equal to ≥ 6.00

---

As an illustration, consider measured Ki for compounds on human placental NOS (Homo sapiens, UniProt P29474).

Sample records with Ki:
> print(dat)
                                   compound    result
1  CCSC(=N)Nc1ccc(CC(N)C(=O)O)s1 (racemic) [Compound 4]   ≤ 10 µM
2  CNC(=N)NCc1ccc(CC(N)C(=O)O)s1 (racemic) [Compound 20]   > 50 µM
3  C=CCNC(=N)Nc1ccc(CC(N)C(=O)O)s1 (racemic) [Compound 6]   ≤ 10 µM
4  CC(=N)Nc1cccc(CC(N)C(=O)O)c1 (racemic) [Compound 14, 3-acetamidino-DL-phenylalanine]   > 50 µM
5  CCSC(=N)Nc1ccc(C[C@H](N)C(=O)O)cc1 [Compound 30, 4-(S-ethylisothioureido)-L-phenylalanine]  ≤ 0.5 µM

// switching to the query compound
The compound N=C(N)Nc1ccc(CC(N)C(=O)O)s1 (racemic) [Compound 2, 3-(5-Guanidino-2-thienyl)-DL-alanine] , when measured on human placental NOS (Homo sapiens, UniProt P29474), yielded Ki of ≤ 50 µM

---

- STUDY_SYSTEM: inducible human NOS (Homo sapiens)
- Construct: Purification of NOS cytokine-induced human colorectal adenocarcinoma DLD-1 cells; 2',5' ADP Sepharose purified
- PROTOCOL_NOTES: Inhibition of inducible human NOS (citrulline formation), enzyme from cytokine-induced DLD-1 cells
- EXPERIMENTAL_SETUP: NOS from cytokine-induced DLD-1 cells; 1 μM L-[14C] arginine; pH 7.4; 10 μM FAD, no calmodulin/CaCl2
PROPERTY_MEASURED: Ki

> print(dat)
                                    compound  property.measured   result
 1  C=CCNC(=N)Nc1ccc(CC(N)C(=O)O)s1 (racemic) [Compound 6]                 Ki  ≤ 10 µM
 2  CSC(=N)Nc1cccc(CC(N)C(=O)O)c1 (racemic) [Compound 26]                 Ki  ≤ 50 µM
 3  CNC(N)=Nc1cccc(CC(N)C(=O)O)c1 (racemic) [Compound 16, 3-N-methylguanidino-DL-phenylalanine]                 Ki  > 50 µM
 4  NC(=S)Nc1ccc(C[C@H](N)C(=O)O)cc1 [Compound 28, 4-thioureido-L-phenylalanine]                 Ki  > 50 µM
 5  CCSC(=N)NCc1ccc(C(N)C(=O)O)s1 (racemic) [Compound 25]                 Ki  ≤ 10 µM
 6  C/N=C(/N)Nc1ccccc1CC(N)C(=O)O (racemic) [Compound 10, 2-(N'-methylguanidino)-DL-phenylalanine]                 Ki   ≤ 1 µM
 7  N=C(N)Nc1ccc(CC(N)C(=O)O)cc1 (racemic) [Compound 13, 4-Guanidino-DL-phenylalanine]                 Ki  > 50 µM
 8  CNC(=N)Nc1ccc(CC(N)C(=O)O)s1 (racemic) [Compound 1]                 Ki  > 50 µM
 9  CSC(=N)Nc1ccccc1CC(N)C(=O)O (racemic) [Compound 8]                 Ki  ≤ 10 µM
10  NC(=S)Nc1ccccc1CC(N)C(=O)O (racemic) [Compound 7, 2-thioureido-DL-phenylalanine]                 Ki  ≤ 10 µM

# Ki (compound: CSC(=N)NCc1ccc(CC(N)C(=O)O)s1 (racemic) [Compound 22] ) is > 50 µM

// sample CSC(=N)Nc1ccc(C[C@H](N)C(=O)O)cc1 [Compound 29] , its Ki was > 50 µM

The reported value for CCSC(=N)Nc1ccc(C[C@H](N)C(=O)O)cc1 [Compound 30, 4-(S-ethylisothioureido)-L-phenylalanine] in terms of Ki is ≤ 10 µM

The compound identified as CNC(=N)Nc1ccc(CC(N)C(=O)O)cc1 (racemic) [Compound 17, 4-N-methylguanidino-DL-phenylalanine] registered its Ki at > 50 µM

Sure, the documented Ki for CCSC(=N)Nc1cccc(CC(N)C(=O)O)c1 (racemic) [Compound 27] is ≤ 10 µM

Lab note: CNC(=N)NCc1ccc(CC(N)C(=O)O)s1 (racemic) [Compound 20] gave Ki of > 50 µM

Lab book: Ki of N=C(NCc1ccc(CC(N)C(=O)O)s1)NC1CC1 (racemic) [Compound 21] noted as > 50 µM

// field: Ki; key: CC(=N)Nc1ccccc1CC(N)C(=O)O (racemic) [Compound 19, 2-((1-iminoethyl)amino)-DL-phenylalanine] ; value = ≤ 10 µM

Note to self: Ki recorded for CC(=N)Nc1cccc(CC(N)C(=O)O)c1 (racemic) [Compound 14, 3-acetamidino-DL-phenylalanine] was > 50 µM

// recorded Ki for CC(=N)Nc1ccc(CC(N)C(=O)O)s1 (racemic) [Compound 18] : ≤ 10 µM

Data provenance is patent US5874472A.
